Assign MIC to each entry below.
- Test system: Mycobacterium smegmatis ATCC 114
- measurement-protocol: In vitro agar dilution MIC, organism code UU
- Format: cell-based
- setup-conditions: Table 1B, in µg/mL (unit assumed)
Answers are plain numbers.

# compound, MIC
records = [
    ("CC[C@H]1OC(=O)[C@@](C)(F)C(=O)[C@H](C)[C@@H](O[C@@H]2O[C@H](C)C[C@H](N(C)C)[C@H]2O)[C@](C)(OC/C=C/c2cnc3ccc(CS(N)(=O)=O)cc3c2)C[C@@H](C)C(=O)[C@H](C)[C@H]2NC(=O)O[C@@]21C [Example 14]", 3.1),
    ("C=CCO[C@]1(C)C[C@@H](C)C(=O)[C@H](C)[C@H]2NC(=O)O[C@]2(C)[C@@H](CC)OC(=O)[C@@](C)(F)C(=O)[C@H](C)[C@H]1O[C@@H]1O[C@H](C)C[C@H](N(C)C)[C@H]1O [Example 4]", 6.2),
    ("CC[C@H]1OC(=O)[C@@](C)(F)C(=O)[C@H](C)[C@@H](O[C@@H]2O[C@H](C)C[C@H](N(C)C)[C@H]2O)[C@](C)(OC/C=C/c2cnc3ccc(N(C)C)cc3c2)C[C@@H](C)C(=O)[C@H](C)[C@H]2NC(=O)O[C@@]21C [Example 13]", 0.78),
    ("CC[C@H]1OC(=O)C(C)(Br)C(=O)[C@H](C)[C@@H](O[C@@H]2O[C@H](C)C[C@H](N(C)C)[C@H]2O)[C@](C)(OC)C[C@@H](C)C2=NCCN3C(=O)O[C@@]1(C)[C@H]3[C@H]2C (some centres unmarked) [Example 3]", 1.56),
    ("CC[C@H]1OC(=O)[C@@](C)(F)C(=O)[C@H](C)[C@@H](O[C@@H]2O[C@H](C)C[C@H](N(C)C)[C@H]2O)[C@](C)(OC/C=C/c2cnc3ccc(C(N)=O)cc3c2)C[C@@H](C)C(=O)[C@H](C)[C@H]2NC(=O)O[C@@]21C [Example 15]", 0.39),
]

# per-item lookup of MIC; items listed below
1. CC[C@H]1OC(=O)[C@@](C)(F)C(=O)[C@H](C)[C@@H](O[C@@H]2O[C@H](C)C[C@H](N(C)C)[C@H]2O)[C@](C)(OC/C=C/c2ccccc2)C[C@@H](C)C(=O)[C@H](C)[C@H]2NC(=O)O[C@@]21C [Example 7]
2. CC[C@H]1OC(=O)[C@@](C)(F)C(=O)[C@H](C)[C@@H](O[C@@H]2O[C@H](C)C[C@H](N(C)C)[C@H]2O)[C@](C)(OC/C=C/c2cnc3ccc(NC)cc3c2)C[C@@H](C)C(=O)[C@H](C)[C@H]2NC(=O)O[C@@]21C [Example 16]
3. CC[C@H]1OC(=O)[C@@](C)(F)C(=O)[C@H](C)[C@@H](O[C@@H]2O[C@H](C)C[C@H](N(C)C)[C@H]2O)[C@](C)(OC/C=C/c2cnc3ccc(NC(=O)OC(C)(C)C)cc3c2)C[C@@H](C)C(=O)[C@H](C)[C@H]2NC(=O)O[C@@]21C [Example 8]

1: 0.05; 2: 0.39; 3: 0.78
